molecular target: KAT7+BRPF2+EAF6+ING5 4 protein complex (Homo sapiens (Human), UniProt O95251); assay: KAT7 BRPF2 assay (SAMDI-MS acetylation of H3 1-21 peptide); type: biochemical; conditions: Morrison equation fit; replicate number in parentheses; read-out: KAT7 BRPF2 Ki (nM) (replicate number)
Heads up, the class ranges for Ki are category 1 = under 6 nM, category 2 = from 6 nM up to 50 nM, category 3 = 50 nM and over

Solved entries:
{"Compound": "CCc1cc(Nc2cc3onc(NS(=O)(=O)c4ccc(C(=O)NCCCCCNC(=O)c5ccc(-c6nnc(C)nn6)cc5)cc4OC)c3cc2OC)[nH]n1 [Example 138]", "Assigned class": "category 1"}
{"Compound": "COc1cc2c(NS(=O)(=O)c3ccccc3OC)noc2cc1Nc1cc[nH]n1 [Example 22]", "Assigned class": "category 3"}
{"Compound": "CCc1cc(Nc2cc3onc(NS(=O)(=O)c4ccc(C(=O)NCCCCCN)cc4OC)c3cc2OC)[nH]n1 [Example 96]", "Assigned class": "category 2"}

Exam item: Category of CCc1cc(Nc2cc3onc(NS(=O)(=O)c4c(OC)cccc4OC)c3cc2OC)[nH]n1 [Example 02] , please.
Marked response: category 1

Exam item: Category of COc1cc2c(NS(=O)(=O)c3c(OC)cc(C4COC(C)(C)CO4)cc3OC)noc2cc1Nc1cc(C2CC2)n[nH]1 (single isomer, unassigned) [Example 185] , please.
Marked response: category 1

Exam item: Category of COc1cc2c(NS(=O)(=O)c3cc(C)ccc3OC)noc2cc1Nc1cc[nH]n1 [Example 24] , please.
Marked response: category 3

Exam item: Category of COc1cc(Nc2cc3onc(NS(=O)(=O)c4c(OC)cccc4OC)c3cc2OC)n[nH]1 [Example 44] , please.
Marked response: category 2

Exam item: Category of COc1cc2c(NS(=O)(=O)c3c(OC)cc(C4COCC(C)(C)O4)cc3OC)noc2cc1Nc1cc(C2CC2)n[nH]1 (single isomer, unassigned) [Example 184] , please.
Marked response: category 1

Exam item: Category of COc1cc2c(NS(=O)(=O)c3ccc(C)cc3OCC(F)F)noc2cc1Nc1cc[nH]n1 [Example 64] , please.
Marked response: category 3
